Item-by-item account of OKT4 A488 signal
assay-target: T1, human CD4 on the surface of SKW3 cells or human PBMCs (human, UniProt P01730 26-458)
T1 construct: whole, on cells; SKW3 CD4 knockout cells served as the negative cell line; also called hCD4; SKW3 WT
experimental-protocol: FACS binning on SKW3 cells; competitor OKT4-Alexa Fluor 488 (its signal read); background 2163, max binding 8200
reported-endpoint: OKT4 A488 signal

INSERT INTO results (binder, reported_endpoint, endpoint_value) VALUES
  ('75110_03D16A (antibody, V domains shown, Tested here as non-clonal hybridoma supernatant from AlivaMab Mouse Kappa mice (detected with anti-mouse Fc and anti-human kappa)) VH: EVQLVESGGGLVQPGGSLRLSCAASGFTFSSYWMSWVRQAPGKGLEWVANINQDGGEKYYVDSVKGRFTISRDNAKNSLYLQMNSLRAEDTAVYYCVREGGQWLALDYWGQGTLVTVSS VL: DIQMTQSPSSVSASVGDRVTITCRASQGISSWLTWYQQKPGKAPKFLIYAASSLQSGVPSRFSGSGFGTDFTLTISSLQPEDFATYYCQQANSFPWTFGQGTKVEIK', 'OKT4 A488 signal', 2280),
  ('75110_07H07A (antibody, V domains shown, Tested here as non-clonal hybridoma supernatant from AlivaMab Mouse Kappa mice (detected with anti-mouse Fc and anti-human kappa)) VH: EVQVVESGGGLVQPGGSLRLSCAASGFTFSSYWMSWVRQAPGKGLEWVANIKEEGSEKYYVDSVKGRFTISRDNAKNSLYLQMNSLRAEDTAVYYCVREGGQWLALDYWGQGTLVTVSS VL: DIQMTQSPSSVSGSVGDRVTITCRASQGISSWLAWYQQKPGKAPKLLIFGASSLQSGVPSRFSGSGSGTDFTLTISSLQPEDFATYYCQQANSFPWTFGQGTKVQIK', 'OKT4 A488 signal', 2060),
  ('75110_02E08A (antibody, V domains shown, Tested here as non-clonal hybridoma supernatant from AlivaMab Mouse Kappa mice (detected with anti-mouse Fc and anti-human kappa)) VH: QVQLQESGPGLVKPSETLSLTCTVSGGSISTYYWTWIRQPAGKGLEWIGRVYTSGDTNYNPSLKSRVAMSLDTSKNQFSLKLSSVTAADTAVYYCARDSGALYSWNYGDAFDIWGQGTMVTVSS VL: DIQMTQSPSAMSASVGDRVTITCRASQDISNYLAWFQQKPGKVPKRLIYAASSLQSGVPSRFSGSGSGTEFTLTISSLQPEDFATYYCLQHNSYPRTFGQGTKVEIK', 'OKT4 A488 signal', 3320);
